Data credit: the supplement of paper PMC11451515

test system: SEM cells; assay: cell viability relative to DMSO control; higher = less cytotoxic; settings: HPLM + 10% dialyzed FBS; 48 h; 5.12 µM
attributeMeasured: cell viability (%)
Express the result in % but write the number alone.

These recorded examples may help you get a feel for the data.
[
  {
    "compound": "CCc1ccc(/C=C2/SC(=S)NC2=O)cc1",
    "dataValue": 80.9
  },
  {
    "compound": "Cc1cc2c(C(N)=O)cccc2n1-c1nc2c(c(NCc3ccccc3)n1)COCC2",
    "dataValue": 3.03
  },
  {
    "compound": "ClC/1=C(NCCN2CCOCC2)/C(=O)C3=C(C=CC=N3)C1=O",
    "dataValue": 95.4
  },
  {
    "compound": "N[C@@H]1CONC1=O",
    "dataValue": 104
  },
  {
    "compound": "CNCC[C@H](Oc1cccc2ccccc12)c1cccs1",
    "dataValue": 110
  },
  {
    "compound": "Oc1nc(-c2ccc(C(F)(F)F)cc2)nc2c1CSCC2",
    "dataValue": 91.1
  },
  {
    "compound": "Nc1ncnc2c1c(-c1cccc(OCc3ccccc3)c1)cn2[C@H]1C[C@@H](CN2CCC2)C1",
    "dataValue": 96.4
  },
  {
    "compound": "CCCCN(CCCC)CC(O)c1cc(Cl)cc2c1-c1ccc(Cl)cc1/C2=C/c1ccc(Cl)cc1 (configuration not stated)",
    "dataValue": 109
  }
]

cell viability recorded for this compound, NC[C@H]1O[C@H](O[C@@H]2[C@H](O)[C@@H](O[C@H]3O[C@H](CO)[C@@H](O)[C@H](N)[C@H]3O)[C@H](N)C[C@@H]2N)[C@H](O)[C@@H](O)[C@@H]1O , is 105

Noted for CCOC(=O)C(C)OC1=CC=CC2=C1\C=C/N(CC(=O)NC3=CC=C4OCCOC4=C3)C2=O (configuration not stated) : its cell viability reads 103

Recorded cell viability (compound CC(C(=O)O)c1ccc2c(c1)CC(=O)c1ccccc1S2 (configuration not stated) ): 126

Value of cell viability reported for the compound CC[C@H]1OC(=O)[C@H](C)C(=O)[C@H](C)[C@@H](O[C@H]2O[C@H](C)C[C@H](N(C)C)[C@H]2O)[C@](C)(OC)C[C@@H](C)C(=O)[C@H](C)[C@H]2N(CCCCn3cnc(-c4cccnc4)c3)C(=O)O[C@]12C is 107

The reported cell viability of the compound COC1=CC=C(C(=C1)OC(C)C)C/2=N/[C@@H]([C@@H](N2C(=O)N3CCNC(=O)C3)C4=CC=C(Cl)C=C4)C5=CC=C(Cl)C=C5 was 29.2

Data point: O=C(CCCN1CCN(c2ccc(F)cc2)CC1)NC1c2ccccc2CSc2ccccc21 (configuration not stated) ; cell viability = 113

Short answer for CNc1nc(Nc2cnn([C@H]3CCN(C4COC4)C[C@@H]3F)c2Cl)ncc1C(F)(F)F : cell viability was 37.7

cell viability measured on NC(=O)c1ccc(N(C(N)=O)c2c(F)cccc2F)nc1-c1ccc(F)cc1F = 88.5

For Nc1c2c(nc3ccccc13)CCCC2 the compound record lists cell viability as 108
